Value source: PubChem BioAssay (NCI)

protocol: NCI Yeast Anticancer Drug Screen. Data for the rad50 strain (AID 155);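 also: 0% = growth of vehicle-only cultures of the same strain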
experimentalParameters: S. cerevisiae rad50 strain growth inhibition; at 50.0 µM; hits give high values
Protocol: Growth inhibition of yeast strains with defined genetic alterations is measured as a screen for potential anti-cancer activity. Selected strains with alterations in DNA damage repair or cell cycle control were exposed to compounds and growth inhibition was measured relative to vehicle treated controls. The strain used in this assay is rad50
About 79,000 compounds went through this panel and 15% of them were active in at least one assay; those are over-represented in the sample as a whole.
Returns label 1 if the recorded growth inhibition is greater than or equal to 10%, and label 0 otherwise.

INSERT INTO assay_data (compound, classname) VALUES
  ('CCOc1ccccc1C(=O)Oc1ccc(C)cc1', 'label 0'),
  ('C=C(C/C(=C/S(C)=O)c1ccccc1)c1ccccc1 (stereo not given)', 'label 1'),
  ('O=C1OC(c2ccccc2)=N/C1=C\c1cccc(F)c1', 'label 0'),
  ('Cn1c2ccccc2c2ccc3c(c21)C(=O)NC3=O', 'label 1'),
  ('N#CCCN(C(=O)COc1ccc(Cl)cc1Cl)C1CCCCC1', 'label 1'),
  ('NC1=NC=NCN1c1ccc(N)cc1', 'label 0'),
  ('Clc1c2c(nc3ccccc13)CCCC2', 'label 1'),
  ('CN1CCCCCC1', 'label 0'),
  ('CC(=O)N1CC/C(=C\c2ccccc2)C1=O', 'label 0'),
  ('CCOC(=O)c1c(N)[nH]c(SSc2[nH]c(N)c(C(=O)OCC)c2C(=O)OCC)c1C(=O)OCC', 'label 1'),
  ('CCN(CC)c1cc(-c2ccccc2)oc(=O)c1Cl', 'label 1'),
  ('CCOC(=O)c1c(C)[nH]c(=S)c(C#N)c1-c1ccc(Cl)cc1', 'label 1'),
  ('CC(=O)OCC(OC(C)=O)C1OC(OCc2ccccc2)C(OC(C)=O)C(OC(C)=O)C1OC(C)=O (stereo not given)', 'label 0'),
  ('Cc1ccc(S(=O)(=O)OCC2CC=CCC2COC(=O)c2ccc([N+](=O)[O-])cc2)cc1 (stereo not given)', 'label 1'),
  ('Cc1cc(N(CCC#N)CCC#N)ccc1/C=C(\NC(=O)/C=C/c1ccccc1)NC(=O)Nc1ccc(Cl)cc1', 'label 1'),
  ('CCCC(CCC)=C1C(=O)N=C(N)NC1=O', 'label 0'),
  ('O=C(O)Cn1ccc(=O)c2c([N+](=O)[O-])cccc21', 'label 1'),
  ('Cc1c(-c2ccccc2)nnn1-c1ccc(F)cc1F', 'label 0'),
  ('Cc1csc(=NCc2cccnc2)n1C', 'label 1'),
  ('c1ccc(N=C(Nc2ccccc2)N2CCCC2)cc1', 'label 0'),
  ('Cc1ccc(S(=O)(=O)Oc2ccccc2NS(=O)(=O)c2ccccc2)cc1', 'label 1'),
  ('c1ccc2c(c1)ccc1nc3c4ccccc4c4ccccc4c3nc12', 'label 1'),
  ('O=C(NCC1CC1)NC(=O)c1ccccc1F', 'label 0'),
  ('Cc1cn(C2CC(O)C(CO)O2)c(=O)nc1N1CCCCCCC1 (stereo not given)', 'label 0');

* * *

protocol: NCI Yeast Anticancer Drug Screen. Data for the sgs1 mgt1 strain (AID 161);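 also: 0% = growth of cultures given vehicle only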
experimentalParameters: S. cerevisiae sgs1 mgt1 strain, at 50.0 µM, hits give high values
This is part of a sample that, as a whole, favours compounds with a hit. Of some 79,000 tested, about 15% had one in any assay. Where a SMILES comes first, the peptide text is derived from it. [ ]: non-standard residue; d: D form. The star is where a group is joined. ξ: configuration not given here. X15 = COc1ccc(C(N*)c2ccc(OC)cc2)cc1; NMeF = CN[C@@H](Cc1ccccc1)C(=O)O; NMeD = CN[C@@H](CC(=O)O)C(=O)O; NMeV = CN[C@H](C(=O)O)C(C)C; ξNMeV = CNC(C(=O)O)C(C)C; Boc = CC(C)(C)OC(=O)*; ξNMeA = CNC(C)C(=O)O; ξV = CC(C)C(N)C(=O)O
Threshold check on growth inhibition: at or above -10% gives YES, strictly below gives NO.

INSERT INTO assay_data (compound, classname) VALUES
  ('O=C(Cl)C(Cl)(c1ccccc1)c1ccccc1', 'YES'),
  ('CCCCCCCCCCCCCBr', 'YES'),
  ('Cc1ccc(S(=O)(=O)Nc2ccc(O)cc2)cc1', 'NO'),
  ('O=C1OC(=O)C2C3C=CC(C4C=C(C5CC5)C43)C12 (centres undefined)', 'YES'),
  ('Cc1nc(-n2nc(-c3ccccc3)cc2-c2ccccc2)sc1C(=O)CC(=O)C(=O)Nc1ccc(Cl)c(Cl)c1', 'YES'),
  ('ClC/C=C/COC1CCCCO1 (centres undefined)', 'YES'),
  ('Cc1cn(C2CC(O)C(CO)O2)c(=O)nc1N1CCCCCCC1 (centres undefined)', 'NO'),
  ('CCCCc1c2c(nc3c1CCCC3O)CCCC2 (centres undefined)', 'NO'),
  ('COc1ccc(C(NC(=O)C[C@@H](C(=O)N(C)C(C)C(=O)O)N(C)C(=O)[C@@H]2CCCN2C(=O)[C@H](C(C)C)N(C)C(=O)C(C(C)C)N(C)C(=O)[C@H](Cc2ccccc2)N(C)C(=O)C(NC(=O)OC(C)(C)C)C(C)C)c2ccc(OC)cc2)cc1 (some centres undefined) (Boc-[ξV][NMeF][ξNMeV][NMeV]P[NMeD](X15)[ξNMeA]-OH)', 'NO');
